Each recorded value in this set is attributed to patent US20250263490A1.

- target: T1, recombinant human domain 1-3His6 of the cation-independent mannose-6-phosphate receptor (human, UniProt P11717 41-467)
- T1 construct: Biotinylated (NHS-PEG4-biotin) for BLI; Glycosylated; also called hDom1-3His6; hCI-M6PRD1-D3
- protocol notes: BLI exp 1, dissoc pH 6
endpoint name: kon (M⁻¹ s⁻¹)

For orientation, consider the following solved cases.
anti-CI-M6PR VHH10 (VHH, His6-tagged; made in Pichia pastoris) VHH: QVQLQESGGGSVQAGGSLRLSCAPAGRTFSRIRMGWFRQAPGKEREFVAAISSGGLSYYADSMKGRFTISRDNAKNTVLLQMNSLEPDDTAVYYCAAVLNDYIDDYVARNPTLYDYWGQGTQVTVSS ... 39100
anti-CI-M6PR VHH3 (VHH, His6-tagged; made in Pichia pastoris) VHH: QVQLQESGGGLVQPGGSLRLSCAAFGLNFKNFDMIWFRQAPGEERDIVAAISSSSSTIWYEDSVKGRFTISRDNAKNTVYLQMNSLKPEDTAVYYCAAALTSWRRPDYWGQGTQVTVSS ... 3.16e+06

1: anti-CI-M6PR VHH9 (VHH, His6-tagged; made in Pichia pastoris) VHH: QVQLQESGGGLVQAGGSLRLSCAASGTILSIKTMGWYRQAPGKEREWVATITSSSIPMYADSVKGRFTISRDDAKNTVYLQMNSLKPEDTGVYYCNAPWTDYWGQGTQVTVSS
2: anti-CI-M6PR VHH2 (VHH, His6-tagged; made in Pichia pastoris) VHH: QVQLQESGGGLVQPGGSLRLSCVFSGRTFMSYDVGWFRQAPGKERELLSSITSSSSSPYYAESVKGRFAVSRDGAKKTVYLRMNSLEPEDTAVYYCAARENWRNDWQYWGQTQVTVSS
Req: Pick the one with the larger kon: 1 vs 2 Output the label that corresponds to your choice.
Resp: 1
(1: 1.81e+06 M⁻¹ s⁻¹, 2: 862000 M⁻¹ s⁻¹)
